System: healthy participants
MEASUREMENT DESCRIPTION: Phase 1 Part B multiple ascending dose (MAD): blood pressure
Format: in vivo, human
CONDITION SET: MAD 60 mg BID, D 14 317 h
METRIC: Mean DBP (mmHg)
Response body: numeric value in mmHg, unit text excluded.

Query: Mean DBP; subject: `CCCN(C)C(=O)OCc1c(-c2ccc(O[C@H]3CCC[C@H](C(=O)O)C3)c(C)n2)nnn1C`
62.5

----------
Test system: healthy participants
MEASUREMENT DESCRIPTION: Phase 1 Part B multiple ascending dose (MAD): blood pressure
Assay type: in vivo, human
CONDITION SET: MAD 10 mg QD, D 14 314 h
METRIC: Mean DBP (mmHg)
Response body: numeric value in mmHg, unit text excluded.

Query: Mean DBP; subject: CCCN(C)C(=O)OCc1c(-c2ccc(O[C@H]3CCC[C@H](C(=O)O)C3)c(C)n2)nnn1C [Compound A]
67.5
